- Test system: SR
- Assay: NCI tumour cell line growth inhibition, 48 h
Calls of active or inactive are those of the source. Rule as the data show it: active = GI50 up to about 1.1 µM and inactive = higher.
GI50: recorded values

Compound	Tested On	GI50
CC(=O)OCC1OC(c2nc3ccccc3s2)=CC(OC(C)=O)C1OC(C)=O (stereo not given)	SR	41.1 µM (inactive)
CC1C2C=C(O)C(=O)C(C2=O)C1c1ccccc1 (stereo not given)	SR	> 100 µM (inactive)
CC(C)OP(=O)(OC(C)C)/C(=N/Nc1ccc([N+](=O)[O-])cc1)Nc1ccccc1	SR	16.6 µM (inactive)
Cc1ccc(S(=O)(=O)NNC(=O)c2cc(C)ccc2NC(=O)C23CC4CC(CC(C4)C2)C3)cc1	SR	84.5 µM (inactive)
CC(=O)OCC1OC(NC(=S)Nn2c(-c3ccccc3)nc3ccccc3c2=O)C(OC(C)=O)C(OC(C)=O)C1OC(C)=O (stereo not given)	SR	35.6 µM (inactive)

The origin of these recorded values is ChEMBL document CHEMBL1201862.
